System: Cell membrane
Assay: Induction of cell membrane […] in methicilin-resistant Staphylococcus aureus 21455 assessed as increase in fluorescence intensity at 16 times MIC by SYTOX green dye based fluorescence analysis
Assay type: cell membranes
measurement-label: Activity
Write the numeric value and append its unit.

Asked: Provide measured Activity value, entry: CC[C@H](C)[C@H](NC(=O)[C@@H](Cc1ccccc1)NC)C(=O)N[C@@H](CCCNC(=N)N)C(=O)N[C@H](CCCNC(=N)N)C(=O)N[C@@H](C(=O)N[C@H](C(=O)N[C@@H](CO)C(=O)N[C@H]1C(=O)N[C@@H](CCCNC(=N)N)C(=O)N[C@@H](C2CCCCC2)C(=O)N[C@@H]([C@@H](C)CC)C(=O)O[C@H]1C)[C@@H](C)CC)[C@@H](C)CC
Given back: 70.2%

----------
Tested on: Staphylococcus epidermidis
Experiment: Antibacterial activity against Staphylococcus epidermidis 12228 assessed as inhibition of bacterial growth
Type: functional
measurement-label: MIC (µg/mL)
Reply with just the number (in µg/mL).

// solved cases for MIC follow
CCC[C@@H]1NC(=O)[C@H](C)NC(=O)[C@H](NC(=O)[C@H](CO)NC(=O)[C@@H](NC(=O)[C@H](NC(=O)[C@@H](CCC(N)=O)NC(=O)[C@H](CCCNC(=N)N)NC(=O)[C@@H](NC(=O)[C@@H](Cc2ccccc2)NC)[C@@H](C)CC)[C@@H](C)CC)[C@@H](C)CC)[C@H](C)OC(=O)[C@H]([C@@H](C)CC)NC1=O    0.063
COc1c(N2C[C@@H]3CCCN[C@@H]3C2)c(F)cc2c(=O)c(C(=O)O)cn(C3CC3)c12    0.063

Would you kindly look at the next entry?
Asked: Look up MIC of CCC[C@@H]1NC(=O)[C@H](CCCNC(=N)N)NC(=O)[C@H](NC(=O)[C@H](CO)NC(=O)[C@@H](NC(=O)[C@H](NC(=O)[C@@H](CCC(N)=O)NC(=O)[C@H](CO)NC(=O)[C@@H](NC(=O)[C@@H](Cc2ccccc2)NC)[C@@H](C)CC)[C@@H](C)CC)[C@@H](C)CC)[C@H](C)OC(=O)[C@H]([C@@H](C)CC)NC1=O and report it.
Given back: 0.063
